- System: L1210 leukemia ip in BDF1 mice, survival T/C
- METHOD NOTES: NCI In Vivo Anticancer Drug Screen. Data for tumor model L1210 Leukemia (intraperitoneal) in B6D2F1 (BDF1) mice
- EXPERIMENTAL SETUP: endpoint: mean survival time; dose: 400.0 mg/kg/injection; schedule: Q04DX002 (ip); vehicle: saline; higher = longer survival
Toxic doses and inconclusive results are not listed.
READOUT NAME: T/C

Please review the entries below; each comes with its answer.
CCCCOCCOCCOc1ccc(Cl)cc1	100 % of control
CCCCCCOC(=O)C1OC1(C)c1ccccc1 (centres undefined)	93 % of control

[Q] Look up T/C: O=C(O)c1c(Br)c(Br)c(Br)c(Br)c1C(=O)O
[A] 103 % of control

[Q] Look up T/C: N=C1c2ccccc2-c2nc3ccccc3c(=O)n21
[A] 89 % of control

----------
The entries below come with measured T/C values attached.
- Tested on: L1210 leukemia ip in BDF1 mice, survival T/C
- METHOD NOTES: NCI In Vivo Anticancer Drug Screen. Data for tumor model L1210 Leukemia (intraperitoneal) in B6D2F1 (BDF1) mice
- EXPERIMENTAL SETUP: endpoint: mean survival time; dose: 200.0 mg/kg/injection; schedule: Q01DX009 (ip); vehicle: Klucel (hydroxypropylcellulose) (HPC); higher = longer survival
Inconclusive results and toxic doses are left out.

N#CC(C#N)=Cc1ccc(Cl)c(Cl)c1	93 % of control
Cc1ccc(NC(=O)OCC2CC3C=CC2C3)cc1NC(=O)OCC1CC2C=CC1C2 (stereo not given)	90 % of control
Cc1cccc(NC(=O)Nc2ccccc2)c1C	96 % of control
O=C(CCNNC(=O)c1ccncc1)NCc1ccccc1	101 % of control

[Q] Look up T/C: CCOC(=O)N1CCC2C(CC3CC2C3(C)C)N1C(=O)OCC (stereo not given)
[A] 101 % of control

----------
The entries below come with measured T/C values attached.
- System: L1210 leukemia ip in BDF1 mice, survival T/C
- METHOD NOTES: NCI In Vivo Anticancer Drug Screen. Data for tumor model L1210 Leukemia (intraperitoneal) in B6D2F1 (BDF1) mice
- EXPERIMENTAL SETUP: endpoint: mean survival time; dose: 100.0 mg/kg/injection; schedule: Q01DX009 (ip); vehicle: Klucel (hydroxypropylcellulose) (HPC); higher = longer survival
Inconclusive results and toxic doses are left out.

Please review the entries below; each comes with its answer.
Cc1cc(C)nc(NC(=O)COc2ccc(Cl)cc2)c1	100 % of control
COc1ccc(/C=C2\C(=O)OC(=O)\C2=C\c2ccc(OC)c(OC)c2)cc1OC	100 % of control
COc1cc(Cl)ccc1NC(=O)N(C)C1CCCCC1	104 % of control

[Q] Look up T/C: Clc1cc(Cl)c(I)c(Cl)c1
[A] 95 % of control

[Q] Look up T/C: O=C1NC(=O)C2(CCCCCCC2)N1
[A] 96 % of control

[Q] Look up T/C: O=C(O)/C=C/C(=O)Nc1ccccc1
[A] 90 % of control

[Q] Look up T/C: CCCCCCOC(=O)Nc1ccc([N+](=O)[O-])cc1OC
[A] 103 % of control

[Q] Look up T/C: Brc1cc(Br)c2[nH]c3c(Br)cc(Br)cc3c2c1
[A] 101 % of control

[Q] Look up T/C: O=C(O)/C=C\Br
[A] 98 % of control

[Q] Look up T/C: Cc1nc(Cl)c2c(n1)Oc1nc(C)nc(Cl)c1C2c1ccc(Cl)cc1
[A] 96 % of control

[Q] Look up T/C: O=C(Nc1ccccc1)Oc1ccc(Cl)cc1
[A] 97 % of control

----------
- Test system: L1210 leukemia ip in BDF1 mice, survival T/C
- METHOD NOTES: NCI In Vivo Anticancer Drug Screen. Data for tumor model L1210 Leukemia (intraperitoneal) in B6D2F1 (BDF1) mice
- EXPERIMENTAL SETUP: endpoint: mean survival time; dose: 100.0 mg/kg/injection; schedule: Q01DX001 (ip); vehicle: Klucel (hydroxypropylcellulose) (HPC); higher = longer survival
Inconclusive results and toxic doses are left out.
The entries below come with measured T/C values attached.

Please review the entries below; each comes with its answer.
C=CCCc1c(N)nc(N)[nH]c1=O	96 % of control
CC(=O)Nc1ccc(S(=O)(=O)NC2CCCCC2)cc1	97 % of control
C#CC(C)(C)OC(C)=O	99 % of control
O=C(c1ccccc1)C12CC3CC(CC(C3)C1)C2	96 % of control
C/C(=N\N)C(=O)S(=O)(=O)c1c(C)cc(C)cc1C	97 % of control

Proceed to the following item.
[Q] Form: Entry = O=c1c2ccccc2[nH]c2ccccc12 | System = L1210 leukemia ip in BDF1 mice, survival T/C | T/C = ____
[A] 95 % of control

----------
- Tested on: L1210 leukemia ip in BDF1 mice, survival T/C
- METHOD NOTES: NCI In Vivo Anticancer Drug Screen. Data for tumor model L1210 Leukemia (intraperitoneal) in B6D2F1 (BDF1) mice
- EXPERIMENTAL SETUP: endpoint: mean survival time; dose: 200.0 mg/kg/injection; schedule: Q04DX003 (ip); vehicle: Klucel (hydroxypropylcellulose) (HPC); higher = longer survival
Inconclusive results and toxic doses are left out.
The entries below come with measured T/C values attached.

Please review the entries below; each comes with its answer.
CSc1ccc(C(=NO)c2ccc(SC)cc2)cc1	94 % of control
Cc1ncc([N+](=O)[O-])n1C	100 % of control

[Q] Look up T/C: Cc1ccc(S(=O)(=O)OCC2C(COS(=O)(=O)c3ccc(C)cc3)C3CCC2C3C(c2ccccc2)c2ccccc2)cc1 (stereo not drawn)
[A] 102 % of control

----------
The entries below come with measured T/C values attached.
- Test system: L1210 leukemia ip in BDF1 mice, survival T/C
- METHOD NOTES: NCI In Vivo Anticancer Drug Screen. Data for tumor model L1210 Leukemia (intraperitoneal) in B6D2F1 (BDF1) mice
- EXPERIMENTAL SETUP: endpoint: mean survival time; dose: 200.0 mg/kg/injection; schedule: Q04DX003 (ip); vehicle: saline; higher = longer survival
Inconclusive results and toxic doses are left out.

Please review the entries below; each comes with its answer.
CCC1(CC)NC(=O)N(CCO)C1=O	106 % of control
CC(N)(C(=O)O)c1ccccc1 (stereo not given)	102 % of control
CCC(C#N)C(=O)NC(N)=O (stereo not given)	92 % of control
CNC(=O)n1cncn1	95 % of control
C=CCN(C(=O)OCC)P(=O)(OCC)OCC	98 % of control
CCC[N+](=CC1CCCCC1)CCC	95 % of control
NCC1OC(OC2C(N)CC(N)C(O)C2OC2OC(CO)C(O)C2O)C(N)C(O)C1O (stereo not given)	95 % of control
CCC(C)NC(C)=O (stereo not given)	97 % of control
C=CCNP(=O)(OCC)OCC	115 % of control
CN(C)CC(=O)N/N=C\c1ccc([N+](=O)[O-])s1	93 % of control

[Q] Look up T/C: O=C(O)CCc1c2ccc(=O)c(O)c-2oc2c(O)c(O)ccc12
[A] 105 % of control

[Q] Look up T/C: CN(C)C(=O)C1C2C=CC(C3CC23)C1C(=O)N(C)C (stereo not given)
[A] 90 % of control

[Q] Look up T/C: CCCCC1=NCCc2c1cc1c([nH]c3ccccc31)c2C
[A] 95 % of control

[Q] Look up T/C: CC(=O)OC1CC2CCC1(C)C2(C)C (stereo not given)
[A] 90 % of control

[Q] Look up T/C: NCC(=O)c1ccc(-c2ccccc2)cc1
[A] 98 % of control

[Q] Look up T/C: CN(C)C(=N)C(=N)N(C)C
[A] 100 % of control

[Q] Look up T/C: OCC12CCCCC1CC1(CC2)OCCO1 (stereo not given)
[A] 106 % of control

[Q] Look up T/C: c1ccc2c3c(ccc2c1)OCN(C12CC4CC(CC(C4)C1)C2)C3
[A] 105 % of control

[Q] Look up T/C: CCCCOP(=O)(NNC=O)OCCCC
[A] 98 % of control

[Q] Look up T/C: O=C1OC2(c3ccc(O)cc3Oc3cc(O)ccc32)C2C3C=CC(C3)C12 (stereo not given)
[A] 92 % of control

[Q] Look up T/C: NC(=O)NN=C1COC(c2ccccc2)OC1 (stereo not given)
[A] 93 % of control

[Q] Look up T/C: CCCCOCCOc1ccc(C(=O)O)cc1
[A] 94 % of control

[Q] Look up T/C: C=C/C=C1\CCOC1=O
[A] 100 % of control

[Q] Look up T/C: CC(C)NC(=O)NS(=O)(=O)c1ccc(N)cc1
[A] 103 % of control

[Q] Look up T/C: CC1(C)CC2(C)CC(=O)C1C(C(=O)O)C2C(=O)O (stereo not given)
[A] 91 % of control

[Q] Look up T/C: COc1cccc([Si](C)(C)[Si](C)C)c1
[A] 110 % of control

[Q] Look up T/C: CC(=O)CCCCC(=O)O
[A] 93 % of control

[Q] Look up T/C: CC(N)C(=O)NCC(=O)NCC(=O)O (stereo not given)
[A] 96 % of control

[Q] Look up T/C: O=C(C1C2CCC(CC2)C1C(=O)N1CCCCC1)N1CCCCC1 (stereo not given)
[A] 100 % of control

[Q] Look up T/C: OCC(O)C1OC(c2ccccc2)OC1C(O)CO (stereo not given)
[A] 92 % of control

[Q] Look up T/C: Cc1cc(=O)c2cccc(-c3ccccc3)c2[nH]1
[A] 96 % of control

[Q] Look up T/C: CN1CCC=C(C(=O)N(c2ccccc2)c2ccccc2)C1
[A] 98 % of control
